- study system: Glucocorticoid receptor (Homo sapiens, UniProt P04150)
- Sequence (P04150 whole entry): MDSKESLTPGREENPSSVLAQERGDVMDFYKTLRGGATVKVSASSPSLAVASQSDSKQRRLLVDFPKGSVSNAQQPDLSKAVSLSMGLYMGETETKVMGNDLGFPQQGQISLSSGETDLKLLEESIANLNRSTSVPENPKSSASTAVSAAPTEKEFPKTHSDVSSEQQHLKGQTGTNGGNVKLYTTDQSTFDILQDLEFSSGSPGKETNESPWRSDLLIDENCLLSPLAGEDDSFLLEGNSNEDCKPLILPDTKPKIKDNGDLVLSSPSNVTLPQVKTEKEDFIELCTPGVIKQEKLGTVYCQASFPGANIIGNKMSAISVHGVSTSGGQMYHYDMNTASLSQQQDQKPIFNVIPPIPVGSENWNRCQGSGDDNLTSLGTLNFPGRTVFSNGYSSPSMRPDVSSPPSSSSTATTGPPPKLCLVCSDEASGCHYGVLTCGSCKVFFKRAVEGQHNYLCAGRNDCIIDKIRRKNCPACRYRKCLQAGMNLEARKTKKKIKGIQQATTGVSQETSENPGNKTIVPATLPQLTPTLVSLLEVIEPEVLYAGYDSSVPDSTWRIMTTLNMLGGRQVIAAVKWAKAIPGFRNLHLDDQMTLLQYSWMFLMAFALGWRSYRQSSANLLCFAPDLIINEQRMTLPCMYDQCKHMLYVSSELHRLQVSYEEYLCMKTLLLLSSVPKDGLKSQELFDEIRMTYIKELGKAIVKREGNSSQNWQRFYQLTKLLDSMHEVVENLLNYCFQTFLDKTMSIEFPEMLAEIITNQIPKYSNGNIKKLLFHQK
- test protocol: Briefly, purified human recombinant full-length glucocorticoid receptor (2 nM) was mixed with fluorescently labeled glucocorticoid (1 nM Fluormone GS Red) in the presence or absence of test compound. After two hour incubation at room temperature in the dark, the fluorescence polarization (FP) of the samples was measured. […] Test compounds were analyzed in the concentration range from 8.5E-05 μM to 5 μM. Binding Assay (II):In order to measure the binding of compounds on the glucocorticoid receptor a commercially available kit was used (Glucocorticoid receptor competitor assay kit, PanVera Co., Madison, Wis., P2816). Briefly, a cell lysate containing recombinantly expressed human full-length glucocorticoid receptor was mixed with a fluorescently labeled glucocorticoid (1 nM Fluormone GS1) in the presence or absence of test compound. After one hour at room temperature, the fluorescence polarization (FP) of the samples were measured. […] An appropriate cell lysate or purified NHR is used as the source of the NHR. The fluorescent probe and unlabeled competitor are appropriate for the specific NHR, i.e., are ligands for the specific NHR.
result type: pKi
Answers are plain numbers, as −log10 of the molar value.

Recorded results for 2 compounds are shown here.
Req: Data request, read-out pKi, for CC(C)(C(=O)NC(N)=O)[C@@H]1c2ccc(-c3ccc(C(=O)N4CCC4)cc3)nc2Oc2c(F)cccc21
Resp: 9.03

Req: Data request, read-out pKi, for CCC(=O)NC(=O)C(C)(C)[C@@H]1c2ccc(-c3ccc(C(=O)N4CCOCC4)cc3)nc2Oc2c(F)cccc21
Resp: 7.18

Hi! Can you tell me pKi for each of these compounds?
1. CC(C)(C(=O)NC(N)=O)[C@H]1c2ccccc2Oc2nc(-c3ccc(C(=O)N4CCOCC4)cc3)ccc21
2. COc1ccc2c(c1)Oc1ccccc1[C@@H]2C(C)(C)C(=O)NC(N)=O

Resp:
[8.74, 8.07]

* * *

Provide the reported Ki of each item.
- study system: UniProt P04150
- test protocol: Briefly, purified human recombinant full-length glucocorticoid receptor (2 nM) was mixed with fluorescently labeled glucocorticoid (1 nM Fluormone GS Red) in the presence or absence of test compound. After two hour incubation at room temperature in the dark, the fluorescence polarization (FP) of the samples was measured. […] Test compounds were analyzed in the concentration range from 8.5E-05 μM to 5 μM. Binding Assay (II):In order to measure the binding of compounds on the glucocorticoid receptor a commercially available kit was used (Glucocorticoid receptor competitor assay kit, PanVera Co., Madison, Wis., P2816). Briefly, a cell lysate containing recombinantly expressed human full-length glucocorticoid receptor was mixed with a fluorescently labeled glucocorticoid (1 nM Fluormone GS1) in the presence or absence of test compound. After one hour at room temperature, the fluorescence polarization (FP) of the samples were measured. […] An appropriate cell lysate or purified NHR is used as the source of the NHR. The fluorescent probe and unlabeled competitor are appropriate for the specific NHR, i.e., are ligands for the specific NHR.
Answers are plain numbers, in nM.

Recorded results for 4 compounds are shown here.
Req: Data request, read-out Ki, for CC(C)NC(=O)NC(=O)C(C)(C)[C@@H]1c2ccc(-c3ccc(C(=O)N4CCOCC4)cc3)nc2Oc2c(F)cccc21
Resp: 32.4

Req: Data request, read-out Ki, for CC(=O)NC(=O)C(C)(C)[C@@H]1c2ccc(-c3ccc(C(=O)N(C)C)cc3)nc2Oc2c(F)cccc21
Resp: 93.5

Req: Data request, read-out Ki, for CC(C)(C(=O)NC(=O)N1CCOCC1)[C@@H]1c2ccc(-c3ccc(C(=O)N4CCOCC4)cc3)nc2Oc2c(F)cccc21
Resp: 171

Req: Data request, read-out Ki, for CNC(=O)NC(=O)C(C)(C)[C@@H]1c2ccc(Cl)nc2Oc2c(F)cccc21
Resp: 37.5

Next compound, Ki to be filled in.
Req: Data request, read-out Ki, for CC(C)(O)CNC(=O)NC(=O)C(C)(C)[C@@H]1c2ccc(-c3ccc(C(=O)N4CCOCC4)cc3)nc2Oc2c(F)cccc21
Resp: 87.1

* * *

- study system: Glucocorticoid receptor (Homo sapiens)
- Sequence (P04150 whole entry): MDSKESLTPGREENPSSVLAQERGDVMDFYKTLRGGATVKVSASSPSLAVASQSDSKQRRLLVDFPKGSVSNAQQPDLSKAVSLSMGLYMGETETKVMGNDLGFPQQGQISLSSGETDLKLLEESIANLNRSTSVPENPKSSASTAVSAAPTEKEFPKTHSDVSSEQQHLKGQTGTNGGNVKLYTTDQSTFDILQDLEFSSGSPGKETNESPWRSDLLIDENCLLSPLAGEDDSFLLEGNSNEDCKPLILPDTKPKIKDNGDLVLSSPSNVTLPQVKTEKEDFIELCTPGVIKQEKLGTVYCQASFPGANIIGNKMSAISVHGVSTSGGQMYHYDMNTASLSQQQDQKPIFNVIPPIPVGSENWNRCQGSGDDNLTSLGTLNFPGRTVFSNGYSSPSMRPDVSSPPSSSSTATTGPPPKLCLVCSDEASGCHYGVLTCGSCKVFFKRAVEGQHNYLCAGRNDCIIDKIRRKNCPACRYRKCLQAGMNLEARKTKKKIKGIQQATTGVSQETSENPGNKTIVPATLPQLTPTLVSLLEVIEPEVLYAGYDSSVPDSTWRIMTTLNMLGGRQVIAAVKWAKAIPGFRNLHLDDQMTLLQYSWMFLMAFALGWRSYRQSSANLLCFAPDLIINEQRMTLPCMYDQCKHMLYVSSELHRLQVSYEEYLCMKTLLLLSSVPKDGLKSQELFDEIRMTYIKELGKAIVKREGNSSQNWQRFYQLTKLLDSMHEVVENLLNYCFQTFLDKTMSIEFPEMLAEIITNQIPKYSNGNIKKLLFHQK
- test protocol: Briefly, purified human recombinant full-length glucocorticoid receptor (2 nM) was mixed with fluorescently labeled glucocorticoid (1 nM Fluormone GS Red) in the presence or absence of test compound. After two hour incubation at room temperature in the dark, the fluorescence polarization (FP) of the samples was measured. […] Test compounds were analyzed in the concentration range from 8.5E-05 μM to 5 μM. Binding Assay (II):In order to measure the binding of compounds on the glucocorticoid receptor a commercially available kit was used (Glucocorticoid receptor competitor assay kit, PanVera Co., Madison, Wis., P2816). Briefly, a cell lysate containing recombinantly expressed human full-length glucocorticoid receptor was mixed with a fluorescently labeled glucocorticoid (1 nM Fluormone GS1) in the presence or absence of test compound. After one hour at room temperature, the fluorescence polarization (FP) of the samples were measured. […] An appropriate cell lysate or purified NHR is used as the source of the NHR. The fluorescent probe and unlabeled competitor are appropriate for the specific NHR, i.e., are ligands for the specific NHR.
Provide the reported pKi of each item.
Numbers only, as −log10 of the molar value.

Hi! Can you tell me pKi for each of these compounds?
1. CC(C)(C(=O)NC(=O)NCCO)[C@@H]1c2ccc(-c3ccc(C(=O)N4CCOCC4)cc3)nc2Oc2c(F)cccc21
2. CC(C)(O)c1ccc(-c2ccc3c(n2)Oc2c(F)cccc2[C@@H]3C(C)(C)C(=O)NC(N)=O)cc1
3. CNC(=O)NC(=O)C(C)(C)[C@@H]1c2ccc(-c3ccc(C(C)(C)O)cc3)nc2Oc2c(F)cccc21

Resp:
1. 7.21
2. 9.49
3. 8.85
